- ASSAYED TARGET: human IL-6 (human, UniProt P05231 30-212)
- Sequence (P05231 30-212 limits assumed): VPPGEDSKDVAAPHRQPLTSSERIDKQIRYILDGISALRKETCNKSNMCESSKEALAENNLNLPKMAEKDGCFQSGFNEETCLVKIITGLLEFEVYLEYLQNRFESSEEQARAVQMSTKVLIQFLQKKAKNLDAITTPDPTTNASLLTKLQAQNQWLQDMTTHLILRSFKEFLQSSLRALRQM
- PROTOCOL DESCRIPTION: SPR (Biacore), supernatant antibody on Protein A chip, IL-6 flowed, 37 C
pKd: −log10 of the molar value.
The following binders are listed with their measured pKd values.

- BINDER: "anti-IL-6 antibody, heavy chain I51L, G66D / light chain M32L, M50D, N52S, M88Q (antibody, human IgG1, V domains shown, Human IgG1) VH: EVQLVESGGGLVQPGGSLRLSCAASGFTFSPFAMSWVRQAPGKGLEWVAKLSPGGSWTYYSDTVTDRFTFSLDTSKSTAYLQMNSLRAEDTAVYYCARQLWGYYALDIWGQGTLVTVSS VL: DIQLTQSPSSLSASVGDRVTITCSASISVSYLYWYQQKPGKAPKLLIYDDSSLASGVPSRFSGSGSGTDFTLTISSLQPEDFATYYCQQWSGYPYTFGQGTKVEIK"
  pKd: 9.01
- BINDER: "anti-IL-6 antibody, heavy chain T63W, G66D / light chain M32L, M50D, N52S, M88Q (antibody, human IgG1, V domains shown, Human IgG1) VH: EVQLVESGGGLVQPGGSLRLSCAASGFTFSPFAMSWVRQAPGKGLEWVAKISPGGSWTYYSDWVTDRFTFSLDTSKSTAYLQMNSLRAEDTAVYYCARQLWGYYALDIWGQGTLVTVSS VL: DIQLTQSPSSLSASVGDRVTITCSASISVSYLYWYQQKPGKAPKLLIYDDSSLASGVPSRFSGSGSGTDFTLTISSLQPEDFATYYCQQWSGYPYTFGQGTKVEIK"
  pKd: 9.54
